TARGET_ENTITY: Heat shock factor protein 1 (Mus musculus, UniProt P38532)
Sequence (P38532 whole entry): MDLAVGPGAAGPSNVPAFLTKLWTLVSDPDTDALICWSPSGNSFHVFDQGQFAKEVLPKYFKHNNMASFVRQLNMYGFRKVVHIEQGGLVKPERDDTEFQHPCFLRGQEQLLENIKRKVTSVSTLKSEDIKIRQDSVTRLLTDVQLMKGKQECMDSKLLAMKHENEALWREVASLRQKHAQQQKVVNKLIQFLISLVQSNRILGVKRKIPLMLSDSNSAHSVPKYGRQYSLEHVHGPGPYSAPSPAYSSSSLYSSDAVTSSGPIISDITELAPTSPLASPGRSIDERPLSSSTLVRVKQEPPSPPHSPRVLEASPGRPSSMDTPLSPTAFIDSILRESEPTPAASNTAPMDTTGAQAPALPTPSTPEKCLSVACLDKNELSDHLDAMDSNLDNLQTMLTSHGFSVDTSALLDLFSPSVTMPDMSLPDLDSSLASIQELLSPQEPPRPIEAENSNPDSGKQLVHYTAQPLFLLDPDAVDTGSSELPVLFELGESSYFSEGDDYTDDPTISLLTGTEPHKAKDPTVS
EXPERIMENT_SUMMARY: inhibition of MG132-induced HSE-luciferase signal, confirmation, cell-based, NIH3T3, luminescence, dose retest (AID 2382);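 note: NIH3T3 fibroblasts with HSF1-driven luciferase reporter stressed by proteasome inhibitor MG132; luminescence from HSF1-driven luciferase expression after 8 hours of MG132 stress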
Format: functional
The source made the active and inactive calls.
# EC50 per record follows

| MOLECULE | EC50 |
| --- | --- |
| Cc1ccc(S(=O)(=O)N(C)CC(=O)N2CCc3ccccc32)cc1 | > 195 µM (not active) |
| CN(C(=O)c1ccc2c(c1)SC1=NS(=O)(=O)CCN12)C(c1ccccc1)c1ccccc1 | > 195 µM (not active) |
| Cc1cc(C2(c3cc(C)c(NC(=O)CN4CCOCC4)c(C)c3)CCCCC2)cc(C)c1NC(=O)CN1CCOCC1 | > 195 µM (not active) |
| Cc1cc(C(=O)CSc2ccc(F)cc2)cc(C)c1OC(=S)N(C)C | < 0.16 µM (active) |
| CN1CCc2c(sc3c2c(=O)n(-c2ccc(Cl)cc2)c2nncn32)C1 | > 195 µM (not active) |
| O=S(=O)(Cc1cc(Oc2ccccc2)nc(-c2ccccc2)n1)c1ccccc1 | > 195 µM (not active) |
| COc1ccc(-c2cc(C(=O)Nc3ccc(S(N)(=O)=O)cc3)c3ccccc3n2)cc1OC | > 195 µM (not active) |
| CCOc1ccc(NCc2nnc(SCc3ccccc3Cl)n2-c2ccccc2)cc1 | > 195 µM (not active) |
| COc1ccc(CCNC(=O)Cc2nn(C)c(=O)c3ccccc23)cc1OC | > 195 µM (not active) |
| COc1ccccc1CCC(=O)OCC(=O)Nc1cccc(S(=O)(=O)N2CCOCC2)c1 | > 195 µM (not active) |

Let's switch to this molecule now.
Look at this molecule and give its reported EC50. COc1nc(N)c(C#N)c(-c2ccc(N(C)CCC#N)cc2)c1C#N
15.6 µM (active)

* * *

TARGET_ENTITY: Nucleotide-binding oligomerization domain-containing protein 2 (Homo sapiens, UniProt Q9HC29)
Sequence (Q9HC29 whole entry, the tested form may be a part): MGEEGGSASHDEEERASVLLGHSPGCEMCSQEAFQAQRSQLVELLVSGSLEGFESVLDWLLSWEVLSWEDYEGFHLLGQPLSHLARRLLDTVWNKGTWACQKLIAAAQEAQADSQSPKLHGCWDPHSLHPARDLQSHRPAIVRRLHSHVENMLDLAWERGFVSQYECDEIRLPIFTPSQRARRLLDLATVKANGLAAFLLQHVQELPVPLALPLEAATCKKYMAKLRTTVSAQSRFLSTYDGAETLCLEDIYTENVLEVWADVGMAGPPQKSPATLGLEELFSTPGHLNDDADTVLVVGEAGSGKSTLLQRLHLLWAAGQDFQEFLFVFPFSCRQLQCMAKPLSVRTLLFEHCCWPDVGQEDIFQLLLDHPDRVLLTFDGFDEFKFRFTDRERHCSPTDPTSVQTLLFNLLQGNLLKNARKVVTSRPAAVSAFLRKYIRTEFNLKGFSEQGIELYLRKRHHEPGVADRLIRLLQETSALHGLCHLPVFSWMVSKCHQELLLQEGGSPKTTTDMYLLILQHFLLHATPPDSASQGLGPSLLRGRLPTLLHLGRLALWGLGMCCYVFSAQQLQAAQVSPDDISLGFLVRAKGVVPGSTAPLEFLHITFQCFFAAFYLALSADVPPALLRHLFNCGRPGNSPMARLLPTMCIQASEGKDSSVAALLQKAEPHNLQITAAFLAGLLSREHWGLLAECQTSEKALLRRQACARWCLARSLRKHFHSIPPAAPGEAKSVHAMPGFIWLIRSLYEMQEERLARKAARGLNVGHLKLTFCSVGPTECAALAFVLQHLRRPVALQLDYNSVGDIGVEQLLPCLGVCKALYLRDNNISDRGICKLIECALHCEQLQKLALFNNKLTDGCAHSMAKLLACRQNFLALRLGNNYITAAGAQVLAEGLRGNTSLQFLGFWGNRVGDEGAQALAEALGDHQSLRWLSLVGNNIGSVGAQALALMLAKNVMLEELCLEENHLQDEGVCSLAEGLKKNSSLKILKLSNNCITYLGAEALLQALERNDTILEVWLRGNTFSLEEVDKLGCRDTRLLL
EXPERIMENT_SUMMARY: NOD2 signaling inhibitors, cell-based, luminescence, uHTS, HEK293 (AID 1566)
Type: functional
Calls of active or inactive are those of the source.
Classes to choose from: true (active), false (inactive)

Recorded results for 6 compounds are shown here.
| COMPOUND | CLASSIFICATION |
| --- | --- |
| O=C(c1ccc(Cn2c(=S)[nH]c3ccccc3c2=O)cc1)N1CCN(c2ccccn2)CC1 | true |
| Cc1nc(SCCC(=O)O)c2cc(-c3ccccc3)sc2n1 | false |
| NC(=O)c1c(NC(=O)C(=O)N2CCOCC2)sc2c1CCCC2 | false |
| COc1cc(OC)c(OC)cc1/C=C1\CC(C)C/C(=C\c2cc(OC)c(OC)cc2OC)C1=O (configuration not stated) | true |
| Cc1nc2ccc(NC(=O)c3cc(S(=O)(=O)N(C)c4ccccc4)ccc3Cl)cc2s1 | false |
| C=CCn1c(C)cc(C(=O)COc2ccc(C)nc2[N+](=O)[O-])c1C | true |

Hi team, can someone confirm the assay call for Cc1ccc(S(=O)(=O)Nc2ccccc2-c2ccccc2NS(=O)(=O)c2ccc(C)cc2)cc1 ?
true
